Assay: Phase I pharmacokinetics, single PO dose
Type: in vivo, human
Settings: human, blood, po, 10 mg
OUTCOME_MEASURE: AUC (ng·h/mL)
Give a bare numeral; the unit ng·h/mL is implied.

Prompt line: Need AUC of Cc1ccc2c(c1)c1c(n2CCc2ccccc2)CCN(C)C1 , thanks.
Response line: 0.462

###

Assay: Phase I pharmacokinetics, single PO dose
Assay type: in vivo, human
Conditions: human, blood, po, 2 mg
OUTCOME_MEASURE: Cmax (pg/mL)
Give a bare numeral; the unit pg/mL is implied.

Prompt line: Need Cmax of Cc1ccc2c(c1)c1c(n2CCc2ccccc2)CCN(C)C1 , thanks.
Response line: 5.79

The reported numbers originate from paper PMC4969713.
